target: CB2 receptor (Mus musculus); construct: membranes were prepared from frozen mouse spleen; from tissue; host or cells: mouse spleen; assay: CB2 receptor binding, [3H] CP-55,940 displacement, mouse spleen membranes; details: TABLE 2; mouse spleen membranes; [3H] CP-55,940; read-out: Kl CB2 (converted)
Sequence (P47936 whole entry): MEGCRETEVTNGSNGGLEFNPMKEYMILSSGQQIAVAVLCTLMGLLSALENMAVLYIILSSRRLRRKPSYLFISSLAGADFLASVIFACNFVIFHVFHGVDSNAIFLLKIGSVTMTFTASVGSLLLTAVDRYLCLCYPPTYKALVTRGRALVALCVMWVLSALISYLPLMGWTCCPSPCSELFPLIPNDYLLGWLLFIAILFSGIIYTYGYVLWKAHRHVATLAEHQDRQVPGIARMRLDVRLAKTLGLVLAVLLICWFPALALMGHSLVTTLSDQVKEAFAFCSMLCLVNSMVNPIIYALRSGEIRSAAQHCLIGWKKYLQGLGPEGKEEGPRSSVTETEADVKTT
The label 1 is reserved for Ki strictly under 90 nM; -1 covers values equal to or above it.

| compoundString | assayedTarget | assignedLabel |
| --- | --- | --- |
| O=C(c1cccc2ccccc12)c1cn(CCCCCF)c2cc(I)ccc12 | CB2 receptor (Mus musculus) | 1 |
| Nc1ccc2c(C(=O)c3cccc4ccccc34)cn(CCCCCO)c2c1 | CB2 receptor (Mus musculus) | -1 |
| CCCCCn1cc(C(=O)c2cc(N=C=S)ccc2I)c2ccccc21 | CB2 receptor (Mus musculus) | -1 |
| CCCCCn1cc(C(=O)c2cc(N=[N+]=[N-])ccc2I)c2ccccc21 | CB2 receptor (Mus musculus) | -1 |

----------
Biological target: CB2 receptor (Mus musculus)
Construct: membranes were prepared from frozen mouse spleen; from tissue; host or cells: mouse spleen
Assay: CB2 receptor binding, [3H] CP-55,940 displacement, mouse spleen membranes
Settings: TABLE 2; mouse spleen membranes; [3H] CP-55,940; read-out: Kl CB2 (converted)
Method: The materials were tested for CB2 receptor binding affinity and for CB1 receptor affinity (to determine selectivity for the CB2 receptor). […] The treated membranes were subsequently used in the binding assay described below. […] Radioactivity was detected using MicroScint 20 scintillation cocktail added directly to the dried filterplates, and the filterplates were counted using a Packard Instruments Top-Count. Nonspecific binding was assessed using 100 nM CP-55,940. […]
attributeMeasured: log10 Ki (log10 of the value in nM)

| compoundString | log10 Ki |
| --- | --- |
| O=C(c1ccc(N=C=S)c2ccccc12)c1cn(CCCCI)c2ccccc12 | 2.33 |
| O=C(c1cccc2ccccc12)c1cn(CCCCCN=C=S)c2ccccc12 | 1.39 |
| O=C(c1cccc2ccccc12)c1cn(CCCCCF)c2cc([N+](=O)[O-])ccc12 | 1.31 |
| O=C(c1cccc2ccccc12)c1cn(CCCCCO)c2cc([N+](=O)[O-])ccc12 | 2.29 |
| O=C(c1cccc2ccccc12)c1cn(CCCCO)c2ccccc12 | 2.29 |
| Cc1ccc(S(=O)(=O)OCCCn2cc(C(=O)c3cccc4ccccc34)c3ccccc32)cc1 | 1.90 |
| CC(=O)OCCCCCn1cc(C(=O)c2cccc3ccccc23)c2ccc(N)cc21 | 2.75 |
| O=C(c1ccccc1I)c1cn(CCCCCF)c2ccccc12 | 0.16 |
| O=C(c1ccccc1I)c1cn(CCCCCO)c2ccccc12 | 2.72 |

----------
Catalogue of log10 Ki values
target: CB1 receptor (Rattus norvegicus); construct: membranes were prepared from rat forebrain membranes; from tissue; host or cells: rat forebrain; experiment: CB1 receptor binding, [3H] CP-55,940 displacement, rat forebrain membranes; details: TABLE 1; racemic samples; rat forebrain membranes; 0.8 nM [3H] CP-55,940; read-out: Kl CB1
Sequence (P20272 whole entry): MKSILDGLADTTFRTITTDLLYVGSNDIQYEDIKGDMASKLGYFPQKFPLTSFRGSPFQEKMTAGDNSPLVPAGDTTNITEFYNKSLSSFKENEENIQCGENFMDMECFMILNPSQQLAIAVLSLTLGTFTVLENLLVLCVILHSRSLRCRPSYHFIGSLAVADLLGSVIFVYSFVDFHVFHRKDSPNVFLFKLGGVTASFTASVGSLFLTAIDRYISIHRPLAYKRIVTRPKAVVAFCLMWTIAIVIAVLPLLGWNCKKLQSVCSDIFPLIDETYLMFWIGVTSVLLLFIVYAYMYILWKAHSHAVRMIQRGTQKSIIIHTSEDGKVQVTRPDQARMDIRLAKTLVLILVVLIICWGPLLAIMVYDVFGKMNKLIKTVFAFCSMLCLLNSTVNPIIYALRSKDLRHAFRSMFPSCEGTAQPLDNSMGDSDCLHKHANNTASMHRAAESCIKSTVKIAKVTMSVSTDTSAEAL
attributeMeasured: log10 Ki (log10 of the value in nM)

| compound | attributeMeasured | readoutNumber |
| --- | --- | --- |
| Cc1c(C(=O)c2ccccc2)c2ccc(N=C=S)cc2n1CC1CCCCN1C (racemic) | log10 Ki | 2.26 |
| CN1CCCCC1Cn1cc(C(=O)c2cccc3ccccc23)c2ccccc21 (centres unmarked) [AM1220] | log10 Ki | 0.59 |
| CN1CCCCC1Cn1cc(C(=O)c2cccc3ccccc23)c2ccccc21 (centres unmarked) [AM1296] | log10 Ki | 0.88 |
| Cc1c(C(=O)c2cccc3ccccc23)c2ccc(N=[N+]=[N-])cc2n1CC1CCCCN1C (racemic) | log10 Ki | 1.49 |
| CN1CCCCC1Cn1cc(C(=O)c2cccc3ccccc23)c2ccc(N)cc21 (racemic) | log10 Ki | 1.98 |
| Cc1c(C(=O)c2ccccc2)c2ccc(N=[N+]=[N-])cc2n1CC1CCCCN1C (racemic) | log10 Ki | 2.19 |
| Cc1c(C(=O)c2ccccc2I)c2ccc(N)cc2n1CC1CCCCN1C (racemic) | log10 Ki | 2.31 |
| Cc1c(C(=O)c2ccccc2I)c2ccc(N=[N+]=[N-])cc2n1CC1CCCCN1C (racemic) | log10 Ki | 1.61 |
